biological target: sirtuin protein (Homo sapiens, UniProt Q96EB6); assay: MS assay (IC50 MS ASSAY / ED50 MS / FOLD ACTIVATION MS); format: biochemical; design: scale not given here; details: TABLE 4
Sequence (Q96EB6 2-747 limits assumed): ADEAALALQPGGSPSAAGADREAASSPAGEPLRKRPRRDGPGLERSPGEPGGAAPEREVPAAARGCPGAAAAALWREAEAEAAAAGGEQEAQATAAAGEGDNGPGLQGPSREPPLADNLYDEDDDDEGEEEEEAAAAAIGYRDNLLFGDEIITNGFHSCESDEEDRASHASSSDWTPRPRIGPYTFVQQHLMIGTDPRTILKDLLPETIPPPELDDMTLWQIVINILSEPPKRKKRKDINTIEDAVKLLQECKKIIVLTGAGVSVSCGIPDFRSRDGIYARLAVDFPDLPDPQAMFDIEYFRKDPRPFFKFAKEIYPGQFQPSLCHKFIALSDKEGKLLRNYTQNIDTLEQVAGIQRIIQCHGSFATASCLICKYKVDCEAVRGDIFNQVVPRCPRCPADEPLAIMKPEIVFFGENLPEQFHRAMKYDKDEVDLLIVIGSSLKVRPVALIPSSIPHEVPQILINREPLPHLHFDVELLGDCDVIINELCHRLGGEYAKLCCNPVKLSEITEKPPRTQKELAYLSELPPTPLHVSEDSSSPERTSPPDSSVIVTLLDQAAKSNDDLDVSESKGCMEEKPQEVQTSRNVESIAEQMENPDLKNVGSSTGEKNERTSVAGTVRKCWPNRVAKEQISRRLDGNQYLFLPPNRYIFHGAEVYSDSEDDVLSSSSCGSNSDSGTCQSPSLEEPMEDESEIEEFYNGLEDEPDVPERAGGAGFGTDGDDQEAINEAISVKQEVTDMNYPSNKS
metric: ED50 MS ASSAY

Field: example entries. Status: answers known.
> print(dat)
                                   compound         metric  result.value
1  COc1ccc(C(=O)Nc2cccc(-c3nc4cccnc4s3)c2)c(OC)c1 [Compound 213]  ED50 MS ASSAY            A′
2  O=C(Nc1ccccc1-c1nc2cc(CN3CCOCC3)cnc2s1)c1ccc2ccccc2n1 [Compound 724]  ED50 MS ASSAY            A′
3  O=C(Nc1ccccc1-c1nc2cc(CN3CCNCC3)cnc2s1)c1cc(-c2ccccc2)no1 [Compound 732]  ED50 MS ASSAY            A′
4  COc1ccc(C(=O)Nc2cccc(-c3nc4ccccc4[nH]3)c2)c(OC)c1 [Compound 211]  ED50 MS ASSAY            A′
5  COc1cc(C)ccc1C(=O)Nc1cccc(-c2nc3ncccc3s2)c1 [Compound 199]  ED50 MS ASSAY            A′
6  COc1ccc(C(=O)Nc2cccc(-c3nc4ncccc4[nH]3)c2)c(OC)c1 [Compound 184]  ED50 MS ASSAY            A′

Please turn your attention to the following entry.
ED50 MS ASSAY for O=C(Nc1ccccc1-c1nc2ccc(CN3CCNCC3)nc2s1)c1ccc2ccccc2n1 [Compound 729] is A′

###

molecular target: UniProt Q96EB6; experiment: MS assay (IC50 MS ASSAY / ED50 MS / FOLD ACTIVATION MS); format: biochemical; parameters: scale not given here; conditions: Table 4
metric: ED50 MS ASSAY

Field: example entries. Status: answers known.
> print(dat)
                            compound.smiles  result.value
1  COc1cc(C(=O)Nc2ccccc2-c2nc3ncccc3o2)ccc1CN1CCOCC1            A′
2  COc1cc(OC)cc(C(=O)Nc2ccccc2-c2nc3cnccc3o2)c1            A′
3  CN(C)c1cccc(C(=O)Nc2cccc(-c3nc4ncccc4s3)c2)c1            A′
4  COc1ccc(C(=O)Nc2cccc(-c3nc4ccccc4[nH]3)n2)cc1OC            A′
5  CN(C)c1cccc(C(=O)Nc2ccccc2-c2nc3ccncc3o2)c1            A′
6  COc1ccc(C(=O)Nc2ccc(-c3nc4ccncc4o3)s2)c(OC)c1            A′

Please turn your attention to the following entry.
ED50 MS ASSAY for "COc1cc(OC)cc(C(=O)Nc2cccc(-c3nc4cccnc4s3)c2)c1" is A′

###

target: sirtuin protein (Homo sapiens); assay: MS assay (IC50 MS ASSAY / ED50 MS / FOLD ACTIVATION MS); assay type: biochemical; design: scale not given here; conditions: Table 4
metric: ED50 MS ASSAY

> print(dat)
                            compound.smiles                     measured.on  result.value
1  COc1cc(C(=O)Nc2ccccc2-c2nc3cccnc3[nH]2)ccc1CN1CCN(C)CC1  sirtuin protein (Homo sapiens)            A′
2  O=C(Nc1ccccc1-c1cn2c(CN3CCNCC3)csc2n1)c1c[nH]c2ccccc12  sirtuin protein (Homo sapiens)            A′
3  COc1ccc(C(=O)Nc2ccc(-c3nc4cnccc4o3)s2)cc1OC  sirtuin protein (Homo sapiens)            A′
4  CN(C)c1cccc(C(=O)Nc2ccccc2-c2nc3cc(CN4CCNCC4)cnc3s2)c1  sirtuin protein (Homo sapiens)            A′

###

molecular target: sirtuin protein (Homo sapiens, UniProt Q96EB6); assay: MS assay (IC50 MS ASSAY / ED50 MS / FOLD ACTIVATION MS); assay type: biochemical; set-up: scale not given here; conditions: Table 4; class symbols A′, A, B, D, NA; legend not given
metric: ED50 MS ASSAY

Field: example entries. Status: answers known.
> print(dat)
                                   compound  result.value
1  COc1cc(C(=O)Nc2ccc(-c3nc4ccncc4o3)cc2)cc(OC)c1OC            A′
2  COc1ccc(C(=O)Nc2ccc(-c3nc4cnccc4s3)s2)c(OC)c1            A′
3  O=C(Nc1ccccc1-c1cn2c(CNCC(O)CO)csc2n1)c1cnc2ccccc2n1 (centres unmarked)            A′
4  CC(=O)N1CCN(Cc2csc3nc(-c4ccccc4NC(=O)c4cnc5ccccc5n4)cn23)CC1            A′

ED50 MS ASSAY for "COc1ccc(C(=O)Nc2cccc(-c3nc4ccccc4[nH]3)n2)cc1OC" is A′

ED50 MS ASSAY for "CN(C)c1cccc(C(=O)Nc2cccc(-c3nc4cnccc4s3)c2)c1" is A′

ED50 MS ASSAY for "CN(C)c1ccc(C(=O)Nc2cccc(-c3nc4cnccc4s3)c2)cc1" is A′

ED50 MS ASSAY for "COc1cccc(C(=O)Nc2ccccc2-c2nc3cccnc3[nH]2)c1C" is A′

ED50 MS ASSAY for "CN(C)c1cccc(C(=O)Nc2ccc(-c3nc4cnccc4s3)s2)c1" is A′

ED50 MS ASSAY for "CN(C)c1cccc(C(=O)Nc2ccccc2-c2nc3ccncc3o2)c1" is A′

###

target: UniProt Q96EB6; experiment: MS assay (IC50 MS ASSAY / ED50 MS / FOLD ACTIVATION MS); format: biochemical; design: scale not given here; conditions: Table 4; class symbols A′, A, B, D, NA; legend not given
metric: ED50 MS ASSAY

Field: example entries. Status: answers known.
> print(dat)
                                   compound     measured.on         metric  result.value
1  COc1cc(NC(=S)Nc2cc(-c3nc4ncccc4o3)ccn2)cc(OC)c1 [Compound 661]  UniProt Q96EB6  ED50 MS ASSAY            A′
2  O=C(Nc1ccccc1-c1cn2c(n1)CCCC2)c1cnc2ccccc2n1 [Compound 548]  UniProt Q96EB6  ED50 MS ASSAY            A′
3  COc1cc(C(=O)Nc2ccc(-c3nc4cnccc4s3)s2)cc(OC)c1OC [Compound 520]  UniProt Q96EB6  ED50 MS ASSAY            A′
4  COc1cc(C(=O)Nc2cccc(-c3nc4ccccc4[nH]3)n2)cc(OC)c1OC [Compound 259]  UniProt Q96EB6  ED50 MS ASSAY            A′
5  COc1cc(C(=O)Nc2ccccc2-c2nc3ccccc3[nH]2)ccc1CN1CCCC1 [Compound 587]  UniProt Q96EB6  ED50 MS ASSAY            A′
6  COc1cc(OC)cc(C(=O)Nc2ccccc2-c2nc3cnccc3o2)c1 [Compound 404]  UniProt Q96EB6  ED50 MS ASSAY            A′
7  O=C(Nc1ccccc1-c1nc2cc(CN3CCNCC3)cnc2s1)c1cnc2ccccc2n1 [Compound 622]  UniProt Q96EB6  ED50 MS ASSAY            A′
8  COc1cc(OC)cc(C(=O)Nc2ccc(-c3nc4ccncc4o3)s2)c1 [Compound 562]  UniProt Q96EB6  ED50 MS ASSAY            A′

Please turn your attention to the following entry.
ED50 MS ASSAY for O=C(Nc1ccccc1-c1nc2ccccc2[nH]1)c1ccc2ccccc2n1 [Compound 556] is A′

###

target: UniProtKB Q96EB6; test: MS assay (IC50 MS ASSAY / ED50 MS / FOLD ACTIVATION MS); type: biochemical; design: scale not given here; conditions: class symbols (A′, A, B, D, NA), no legend given
metric: ED50 MS ASSAY

Field: example entries. Status: answers known.
> print(dat)
                                   compound  result.value
1  COc1ccc(C(=O)Nc2ccccc2-c2nc3cccnc3[nH]2)cc1OC [Compound 525]            A′
2  O=C(Nc1ccccc1-c1nc2ccccc2[nH]1)c1cnc2ccccc2n1 [Compound 508]            A′
3  COc1cc(C(=O)Nc2ccccc2-c2nc3cccnc3[nH]2)ccc1CN1CCN(C)CC1 [Compound 539]            A′
4  COc1cccc(C(=O)Nc2ccccc2-c2nc3cccnc3[nH]2)c1 [Compound 532]            A′
5  CC(=O)N1CCN(Cc2csc3nc(-c4ccccc4NC(=O)c4cnc5ccccc5n4)cn23)CC1 [Compound 651]            A′
6  O=C(Nc1ccccc1-c1cn2c(CN3CCNCC3)csc2n1)c1cc(-c2ccccc2)ncn1 [Compound 625]            A′

The value of ED50 MS ASSAY recorded for Cc1ccc(C(=O)Nc2ccccc2-c2nc3cc(CN4CCNCC4)cnc3s2)cc1C [Compound 591] when tested on UniProtKB Q96EB6 reads A′
